Source listed as patent US5498628A.

target: HUMAN D3 DOPAMINERGIC RECEPTOR (Homo sapiens, UniProt P35462)
Sequence (P35462 whole entry): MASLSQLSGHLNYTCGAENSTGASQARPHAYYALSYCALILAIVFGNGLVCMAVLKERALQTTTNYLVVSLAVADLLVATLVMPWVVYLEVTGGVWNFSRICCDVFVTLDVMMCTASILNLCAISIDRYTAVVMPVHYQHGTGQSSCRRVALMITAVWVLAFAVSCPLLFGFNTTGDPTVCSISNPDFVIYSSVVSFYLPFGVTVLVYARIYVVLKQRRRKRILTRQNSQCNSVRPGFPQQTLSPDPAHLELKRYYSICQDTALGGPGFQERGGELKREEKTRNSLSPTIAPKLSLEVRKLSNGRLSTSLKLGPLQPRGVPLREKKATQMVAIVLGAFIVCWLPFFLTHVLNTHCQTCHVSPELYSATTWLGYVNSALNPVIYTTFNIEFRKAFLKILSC
Where a name gives a salt, the structure may show the parent alone.
Binary call on Ki with cut-off 0.3 nM: strictly below means yes, and equality or higher means no.

| COMPOUND | CATEGORY |
| --- | --- |
| CCN1CCCC1CNC(=O)c1cc(Cl)c2ccccc2c1OC (stereo not shown) [Example 8, hydrochloride] | yes |
| C=CCN1CCCC1CNC(=O)c1cc(C#N)c2ccccc2c1OC (stereo not shown) | no |
| COc1c(C(=O)NCC2CCCN2Cc2ccccc2)ccc2ccccc12 (stereo not shown) [Example 11, hydrochloride] | no |
| C=CCN1CCCC1CNC(=O)c1cc([N+](=O)[O-])c2ccccc2c1OC (stereo not shown) | no |
| CCN1CCCC1CNC(=O)c1ccc2ccccc2c1OC (stereo not shown) | no |
| CCCCN1CCCC1CNC(=O)c1cc(Br)c2ccccc2c1OC (stereo not shown) [Example 1, hydrochloride] | yes |
